Numbers sourced from ChEMBL document CHEMBL1201862.

biological target: Endoribonuclease toxin MazF (Escherichia coli K-12, UniProt P0AE70); assay: activation of MazEF endoribonuclease cleavage – biochemical, fluorescence, single-stranded RNA substrate, uHTS hits, dose response (AID 588481); assay type: functional
Sequence (P0AE70 whole entry): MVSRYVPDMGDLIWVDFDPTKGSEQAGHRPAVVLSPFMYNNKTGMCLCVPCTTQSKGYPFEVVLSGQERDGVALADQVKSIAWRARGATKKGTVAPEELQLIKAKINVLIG
Active and inactive are the calls of the source.
# Lookup of reported EC50 keyed by entry

# molecule, subject.of.test, EC50
rows = [
    ("O=C(Nc1cccc2ccccc12)N1CC=C(c2ccccc2)CC1", "Endoribonuclease toxin MazF (Escherichia coli K-12, UniProt P0AE70)", "53.7 µM (inactive)"),
    ("CCOC(=O)Cn1c2ccc(OC)cc2c2nc3ccccc3nc21", "Endoribonuclease toxin MazF (Escherichia coli K-12, UniProt P0AE70)", "> 99 µM (inactive)"),
    ("CCOc1cc2c(cc1/C=C/c1noc(C)c1[N+](=O)[O-])OC(C)C2 (centres undefined)", "Endoribonuclease toxin MazF (Escherichia coli K-12, UniProt P0AE70)", "> 99 µM (inactive)"),
]

Now consider a different molecule.
Summary for this molecule, CN(C)Cc1c(C(=O)N/N=C/c2cccc(OCc3ccc(F)cc3)c2)nnn1-c1nonc1N : EC50 is 45.2 µM (inactive)

====

What follows is a record of AC50 for Cytochrome P450 1A2 (Homo sapiens, UniProt P05177).

Record excerpt, results attached:
# compound.smiles, AC50
data = [
    ("COc1cccc(NC(=O)c2oc3ccccc3c2NC(=O)c2ccc3c(c2)OCO3)c1", "6.31 µM (inconclusive)"),
    ("N[C@@H](Cc1cc(-c2ccc(Cl)cc2Cl)cc(CP(=O)(O)O)c1O)C(=O)O", "20 µM (inconclusive)"),
    ("CCN(c1ccccc1)c1cc(NC)[n+](C)c(C)n1", "31.6 µM (inconclusive)"),
    ("O=C(Nc1ccccc1)N1CCC2(CC1)CCN(C(=O)c1cccc(F)c1)CC2", "10 µM (inconclusive)"),
    ("O=C(Nc1cccc(NC(=O)N2CCN(c3ccccc3)CC2)c1)N1CCN(c2ccccc2)CC1", "15.8 µM (inconclusive)"),
    ("O=C(Nc1cc2ccccc2oc1=O)C1CCCCC1", "2.51 µM (inconclusive)"),
]

// below: AC50 requested for another compound
Readout AC50 for N=C(N)SCCSC(=N)N , test system Cytochrome P450 1A2 (Homo sapiens, UniProt P05177), was 2 µM (inconclusive)

====

molecular target: Dual specificity protein kinase CLK4 (Homo sapiens); format: functional
Sequence (Q9HAZ1 whole entry): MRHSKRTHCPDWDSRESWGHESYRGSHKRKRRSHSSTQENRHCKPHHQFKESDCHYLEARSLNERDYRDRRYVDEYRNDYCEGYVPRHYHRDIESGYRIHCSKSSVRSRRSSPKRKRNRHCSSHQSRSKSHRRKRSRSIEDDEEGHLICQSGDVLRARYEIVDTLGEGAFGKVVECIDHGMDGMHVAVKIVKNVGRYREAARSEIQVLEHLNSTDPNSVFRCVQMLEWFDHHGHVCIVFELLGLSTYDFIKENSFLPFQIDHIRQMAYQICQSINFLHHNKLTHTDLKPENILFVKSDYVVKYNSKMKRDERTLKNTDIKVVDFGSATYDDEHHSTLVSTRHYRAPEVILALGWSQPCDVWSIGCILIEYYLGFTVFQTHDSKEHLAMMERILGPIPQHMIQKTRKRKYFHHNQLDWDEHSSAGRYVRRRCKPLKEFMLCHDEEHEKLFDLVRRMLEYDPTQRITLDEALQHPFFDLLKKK
Active and inactive are the calls of the source.
The reply should name one outcome from TRUE for active, FALSE for inactive

Reference set (3 entries):
# compound.smiles, assigned.class
records = [
    ("c1ccc(Cn2nnc(-c3ccc4[nH]ncc4c3)c2-c2ccccc2)cc1", "TRUE"),
    ("O=C(Nc1n[nH]c2ccc(-c3cn(Cc4ccccc4)nn3)cc12)c1cc(F)ccc1F", "TRUE"),
    ("CS(=O)(=O)N(Cc1ccc2[nH]c(=O)c3cccn3c2c1)C1CC1", "FALSE"),
]

We now examine a further compound.
Request: Hi, do you know how CS(=O)(=O)Nc1ccc(Nc2ccc3[nH]nc(N)c3c2)cc1 came out in this test?
Response: TRUE

====

molecular target: Luciferin 4-monooxygenase (Photinus pyralis, UniProt P08659); assay: inhibition of purified Photinus pyralis luciferase – biochemical, luminescence, dose response (AID 1891)
Sequence (P08659 whole entry): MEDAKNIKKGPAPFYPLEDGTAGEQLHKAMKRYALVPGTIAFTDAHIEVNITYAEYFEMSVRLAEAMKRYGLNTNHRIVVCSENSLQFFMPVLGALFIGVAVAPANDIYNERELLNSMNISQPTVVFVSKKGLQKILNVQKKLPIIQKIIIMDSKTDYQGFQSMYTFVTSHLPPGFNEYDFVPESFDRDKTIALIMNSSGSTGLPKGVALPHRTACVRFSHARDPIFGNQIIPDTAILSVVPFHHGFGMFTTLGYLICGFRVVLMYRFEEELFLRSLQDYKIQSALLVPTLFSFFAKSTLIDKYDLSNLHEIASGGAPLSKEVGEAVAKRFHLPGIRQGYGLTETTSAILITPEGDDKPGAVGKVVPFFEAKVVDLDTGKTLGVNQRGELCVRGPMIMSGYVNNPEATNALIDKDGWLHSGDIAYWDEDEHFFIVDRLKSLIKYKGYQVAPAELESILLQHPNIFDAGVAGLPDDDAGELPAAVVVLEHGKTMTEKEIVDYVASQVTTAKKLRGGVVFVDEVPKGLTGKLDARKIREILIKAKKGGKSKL
Calls of active or inactive are those of the source.
quantity.name: EC50

# compound, quantity.name, reading
records = [
    ("Cc1ccc2c(CC(=O)N3CCN(S(=O)(=O)c4cccs4)CC3)coc2c1", "EC50", "> 112 µM (not active)"),
    ("COc1ccc(C(=O)/N=c2\\nc3ccccn3s2)cc1", "EC50", "1.07 µM (active)"),
    ("OCCN1CCN(CC(O)COc2ccc(Cl)cc2)CC1 (configuration not stated)", "EC50", "> 112 µM (not active)"),
]

// field: EC50; key: O=C(Nc1ccccc1)Nc1ccc(C(=O)N2CCCC2)cc1 ; value = 0.571 µM (active)

Entry CCn1c(C)nc2cc(-c3nc4n(n3)Cc3ccccc3-4)ccc21 — recorded EC50 = 0.311 µM (active)

response.value for CNc1nc2c(N)ncnc2n1[C@H]1O[C@@H](CO)[C@H](O)[C@@H]1O (field: EC50) = > 112 µM (not active)

response.value for COC(=O)c1[nH]c2ccc(Cl)cc2c1NC(=O)CN1CCc2cc(OC)c(OC)cc2C1 (field: EC50) = > 112 µM (not active)

====

target: Fatty acid synthase (Homo sapiens); experiment: inhibition of human FAS-TE enzyme activity – biochemical, kinetic fluorescence intensity, dose response (AID 624326); format: functional;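 further: rate of fluorescence rise from hydrolysis of a fluorogenic O-methyl fluorescein ester substrate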
Sequence (P49327 whole entry): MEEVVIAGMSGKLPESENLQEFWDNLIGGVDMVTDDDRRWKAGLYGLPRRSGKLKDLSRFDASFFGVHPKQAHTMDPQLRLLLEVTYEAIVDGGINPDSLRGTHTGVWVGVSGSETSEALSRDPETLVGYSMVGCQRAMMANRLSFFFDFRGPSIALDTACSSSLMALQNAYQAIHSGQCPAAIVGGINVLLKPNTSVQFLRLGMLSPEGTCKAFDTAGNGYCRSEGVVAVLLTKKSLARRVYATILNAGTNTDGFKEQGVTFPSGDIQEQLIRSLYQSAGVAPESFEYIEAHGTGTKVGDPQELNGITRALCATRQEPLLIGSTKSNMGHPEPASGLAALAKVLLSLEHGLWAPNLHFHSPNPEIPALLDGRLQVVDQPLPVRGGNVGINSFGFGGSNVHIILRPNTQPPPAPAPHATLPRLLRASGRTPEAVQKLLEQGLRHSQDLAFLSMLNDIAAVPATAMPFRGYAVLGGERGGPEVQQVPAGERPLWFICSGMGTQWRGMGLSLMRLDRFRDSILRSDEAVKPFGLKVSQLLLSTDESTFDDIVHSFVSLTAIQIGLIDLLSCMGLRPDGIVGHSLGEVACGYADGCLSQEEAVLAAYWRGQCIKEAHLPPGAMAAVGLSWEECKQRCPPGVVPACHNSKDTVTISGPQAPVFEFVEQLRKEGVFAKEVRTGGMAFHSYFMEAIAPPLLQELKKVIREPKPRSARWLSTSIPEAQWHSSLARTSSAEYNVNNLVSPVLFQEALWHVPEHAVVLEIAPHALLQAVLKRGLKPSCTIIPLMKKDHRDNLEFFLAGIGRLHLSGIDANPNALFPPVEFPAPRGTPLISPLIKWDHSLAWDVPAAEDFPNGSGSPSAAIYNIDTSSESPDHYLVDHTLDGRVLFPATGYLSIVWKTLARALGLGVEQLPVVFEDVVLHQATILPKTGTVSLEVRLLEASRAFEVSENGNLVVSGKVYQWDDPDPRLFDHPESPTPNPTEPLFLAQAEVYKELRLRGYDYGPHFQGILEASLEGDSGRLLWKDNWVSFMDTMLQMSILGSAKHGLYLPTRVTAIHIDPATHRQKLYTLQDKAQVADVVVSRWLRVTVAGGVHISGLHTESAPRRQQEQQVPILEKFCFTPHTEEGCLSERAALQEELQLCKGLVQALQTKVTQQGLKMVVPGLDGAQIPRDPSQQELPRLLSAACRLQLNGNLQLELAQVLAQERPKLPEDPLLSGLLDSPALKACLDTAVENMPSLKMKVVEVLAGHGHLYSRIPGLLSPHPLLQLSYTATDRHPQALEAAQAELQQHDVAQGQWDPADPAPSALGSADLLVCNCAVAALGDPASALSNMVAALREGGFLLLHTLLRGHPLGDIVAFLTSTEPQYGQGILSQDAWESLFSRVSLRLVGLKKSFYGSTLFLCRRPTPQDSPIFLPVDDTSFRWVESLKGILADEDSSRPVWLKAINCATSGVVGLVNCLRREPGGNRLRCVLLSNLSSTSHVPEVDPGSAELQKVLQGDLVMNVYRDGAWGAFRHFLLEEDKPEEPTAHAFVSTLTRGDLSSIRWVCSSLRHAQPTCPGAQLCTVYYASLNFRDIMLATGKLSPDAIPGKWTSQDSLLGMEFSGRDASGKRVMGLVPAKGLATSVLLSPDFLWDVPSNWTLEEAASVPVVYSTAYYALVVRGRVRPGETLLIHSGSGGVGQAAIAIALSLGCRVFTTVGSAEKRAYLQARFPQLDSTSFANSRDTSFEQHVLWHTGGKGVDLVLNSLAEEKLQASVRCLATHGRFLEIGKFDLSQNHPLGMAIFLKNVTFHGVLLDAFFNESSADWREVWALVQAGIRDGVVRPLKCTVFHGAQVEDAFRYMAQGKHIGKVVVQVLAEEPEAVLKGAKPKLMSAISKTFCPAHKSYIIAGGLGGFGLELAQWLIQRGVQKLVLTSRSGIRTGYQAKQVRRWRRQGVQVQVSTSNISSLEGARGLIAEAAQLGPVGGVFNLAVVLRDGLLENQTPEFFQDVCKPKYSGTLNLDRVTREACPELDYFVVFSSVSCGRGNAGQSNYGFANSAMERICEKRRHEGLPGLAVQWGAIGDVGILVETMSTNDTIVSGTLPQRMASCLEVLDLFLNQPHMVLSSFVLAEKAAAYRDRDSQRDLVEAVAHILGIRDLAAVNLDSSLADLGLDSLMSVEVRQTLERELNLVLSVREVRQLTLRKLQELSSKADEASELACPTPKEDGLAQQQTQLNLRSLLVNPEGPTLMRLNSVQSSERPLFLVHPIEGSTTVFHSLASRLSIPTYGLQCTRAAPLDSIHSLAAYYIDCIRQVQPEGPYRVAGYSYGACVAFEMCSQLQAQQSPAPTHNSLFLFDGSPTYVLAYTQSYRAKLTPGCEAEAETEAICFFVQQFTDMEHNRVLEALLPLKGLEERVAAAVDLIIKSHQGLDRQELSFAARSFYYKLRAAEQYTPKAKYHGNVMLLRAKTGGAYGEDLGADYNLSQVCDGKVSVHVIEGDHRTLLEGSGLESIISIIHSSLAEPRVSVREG
Calls of active or inactive are those of the source.
quantity.name: IC50

# molecule, reading
data = [
    ("Cc1cccc(NS(=O)(=O)c2ccc3[nH]c(=O)cc(C(=O)OC(C)C(=O)Nc4ccc([N+](=O)[O-])cc4)c3c2)c1 (stereo not given)", "3.66 µM (active)"),
    ("C/C(=N\\Nc1nc(N2CCOCC2)nc(N2CCOCC2)n1)c1ccc([N+](=O)[O-])cc1", "17.9 µM (active)"),
    ("CC(C)COc1ccc(C(=O)N/C(=C\\c2cccc([N+](=O)[O-])c2)C(=O)O)cc1", "9.1 µM (active)"),
    ("Cc1nc2c(OCc3ccc(Cl)cc3Cl)cccn2c1N(C)CC1CC1", "12.9 µM (active)"),
]

Could you now look at the following molecule, please?
Per the record, CC(C)(C)c1ccc(C(=O)OCCNC(=O)c2c(Cl)nc3ccccn23)cc1 has IC50 of 4.36 µM (active)

====

biological target: cAMP-dependent protein kinase catalytic subunit alpha (Homo sapiens); type: functional
Calls of active or inactive are those of the source.
Return exactly one item of active, inactive

# compound.smiles, assigned.class
data = [
    ("c1ccc(Cn2nnc(-c3ccc4[nH]ncc4c3)c2-c2ccccc2)cc1", "active"),
]

Request: What outcome does the record of this test show for O=C(Nc1n[nH]c2ccc(-c3cn(Cc4ccccc4)nn3)cc12)c1cc(F)ccc1F ?
Response: inactive

Request: Could you kindly confirm the outcome this assay logged for CS(=O)(=O)N(Cc1ccc2[nH]c(=O)c3cccn3c2c1)C1CC1 ?
Response: inactive

Request: What was the test verdict on c1cnc2[nH]cc(-c3ccnc(NCC4CCCCC4)n3)c2c1 ?
Response: active

====

Reported IC50 values for a set of compounds
target: Polyadenylate-binding protein 1 (Homo sapiens, UniProt P11940); assay: MLLE binding blockers, Cy5 peptide tracer – biochemical, fluorescence polarization, Cy5-PAM2 peptide, secondary, miRNA deadenylation inhibitor project, dose response (AID 602260); assay type: functional; settings: read-out: IC50_Mean
Sequence (P11940 whole entry): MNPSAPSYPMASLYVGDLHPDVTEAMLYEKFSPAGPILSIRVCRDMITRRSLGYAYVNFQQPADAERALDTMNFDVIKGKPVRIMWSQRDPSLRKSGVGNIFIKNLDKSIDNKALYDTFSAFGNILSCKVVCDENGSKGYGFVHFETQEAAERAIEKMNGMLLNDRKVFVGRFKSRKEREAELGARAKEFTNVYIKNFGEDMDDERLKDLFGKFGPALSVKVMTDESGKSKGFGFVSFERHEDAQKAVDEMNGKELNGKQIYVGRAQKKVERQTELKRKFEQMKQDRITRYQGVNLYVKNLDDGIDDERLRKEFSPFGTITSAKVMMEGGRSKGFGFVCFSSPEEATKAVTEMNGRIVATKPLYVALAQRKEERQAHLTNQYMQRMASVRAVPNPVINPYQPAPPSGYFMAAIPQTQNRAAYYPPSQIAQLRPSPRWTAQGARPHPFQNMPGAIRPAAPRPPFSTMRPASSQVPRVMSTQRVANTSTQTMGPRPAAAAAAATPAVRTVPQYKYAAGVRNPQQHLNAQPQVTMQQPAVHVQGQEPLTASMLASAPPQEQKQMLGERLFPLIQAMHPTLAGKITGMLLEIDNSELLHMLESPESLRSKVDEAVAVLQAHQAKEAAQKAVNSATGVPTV
Active and inactive are the calls of the source.

# compound.smiles, subject.of.test, quantity.name, reading
records = [
    ("COCCn1c(=N)c(C(=O)NCc2ccco2)cc2c(=O)n3cc(C)ccc3nc21", "Polyadenylate-binding protein 1 (Homo sapiens, UniProt P11940)", "IC50", "33.2 µM (inactive)"),
    ("CCc1noc(C)c1C(=O)N1CCN(S(=O)(=O)c2ccccc2C(F)(F)F)CC1", "Polyadenylate-binding protein 1 (Homo sapiens, UniProt P11940)", "IC50", "> 66 µM (inactive)"),
]

Record Oc1ccc(CN2CCCCC2)nc1O . Reported IC50: > 66 µM (inactive)

Per the records, this compound ( O=S(=O)(NC(=S)NC1CCCCC1)c1ccccc1 ) has IC50 equal to > 66 µM (inactive)

IC50 for Cc1cc(C)n2nc(SCc3cc(=O)oc4ccc5ccccc5c34)nc2n1 is > 66 µM (inactive)

Please fill in: IC50 reported for Cc1ccc(S(=O)(=O)CCSc2cccc(C(=O)O)c2)cc1 = > 66 µM (inactive)

Noted for Nc1c(-c2ccccc2)sc2ccc3ccccc3[n+]12 : its IC50 reads > 66 µM (inactive)

The measured IC50 associated with CC(C)CNc1nc(S)nc(N(C)C)n1 reads > 66 µM (inactive)

Memo: Cc1ccc(-c2nc(N)s[n+]2-c2ccccc2)cc1 , reported IC50: > 66 µM (inactive)

====

molecular target: Replicative DNA helicase DnaB (Mycobacterium tuberculosis); experiment: DnaB intein splicing inhibitors, dose response, biochemical, cell-free fluorescence (AID 449749); format: functional
Sequence (P9WMR3 1-399, added parts left off): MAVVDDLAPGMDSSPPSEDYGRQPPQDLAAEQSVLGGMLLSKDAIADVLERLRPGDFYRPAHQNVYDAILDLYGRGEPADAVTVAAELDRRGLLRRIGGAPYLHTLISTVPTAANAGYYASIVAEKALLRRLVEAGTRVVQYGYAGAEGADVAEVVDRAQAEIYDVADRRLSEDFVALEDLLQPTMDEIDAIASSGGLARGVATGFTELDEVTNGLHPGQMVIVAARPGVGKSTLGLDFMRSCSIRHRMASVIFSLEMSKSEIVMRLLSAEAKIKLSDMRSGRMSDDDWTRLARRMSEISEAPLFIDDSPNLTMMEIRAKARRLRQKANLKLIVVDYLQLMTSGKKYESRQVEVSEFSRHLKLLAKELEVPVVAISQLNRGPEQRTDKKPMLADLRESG
Activity calls are given as the source filed them.
API: response.call in 1.0 = active, 0.0 = inactive

Request: Write down the call the test reported for this compound. Item: C/C(=N/NC(=O)Cc1cc(O)[nH]n1)c1ccc([N+](=O)[O-])cc1
Response: 1.0

====

molecular target: Heat shock protein HSP 90-alpha (Homo sapiens); assay type: functional, organism-based
Activity calls are given as the source filed them.
Here the recorded AC50 is given for each entry.

AC50 recorded for this molecule, COc1ccc2c(c1)OC[C@H]1[C@H]2N2C(=O)c3cc(Br)ccc3NC(=O)[C@@]2(C)[C@H]1c1ccccc1 , is 0.837 µM (active)

AC50 for O=C(O)c1cccc2c1Cc1cc(Cl)ccc1-2 is 0.723 µM (active)
